Reference for the values: PubChem BioAssay (NCI)

Test system: HOP-92 NSCLC
ASSAY NOTES: NCI-60 one-dose screen, 48 h (100 = growth as untreated, 0 = no growth, -100 = all killed)
RUN CONDITIONS: 10 µM unless noted
This is part of a sample that, as a whole, favours compounds with a hit. Of some 83,000 tested, about 20% had one in any assay.
Form field: growth (one value per entry).
Hi! Could you send only the number? It should be in %, unit omitted.

{"COMPOUND": "CNC(=O)Oc1ccc(N(C)C)cc1C(C)C", "growth [%]": 100}
{"COMPOUND": "NC1CC2CCCCC2CC1(O)c1ccccc1 (stereo unspecified)", "growth [%]": 88.6}
{"COMPOUND": "C=CC[n+]1ccc(-c2cc[n+](CC=C)cc2)cc1", "growth [%]": 111}
{"COMPOUND": "C/C(=C\\c1ccn(-c2ccc(N)c(F)c2)n1)[C@@H]1C[C@@H]2O[C@]2(C)CCC[C@H](C)[C@H](O)[C@@H](C)C(=O)C(C)(C)[C@@H](O)CC(=O)O1", "growth [%]": 53.2}
{"COMPOUND": "COc1ccc(O)c(CNC(=O)CN2CCCC2=O)c1", "growth [%]": 86.1}

Query compound follows.
[ask] Please report the recorded growth for C#Cc1ccc2c(c1)C(c1ccccc1)=NCC(=O)N2C .
[reply] 72.2

---

Form field: growth (one value per entry).
System: BT-549 breast
ASSAY NOTES: NCI-60 one-dose screen, 48 h (100 = growth as untreated, 0 = no growth, -100 = all killed)
RUN CONDITIONS: 10 µM unless noted
Compounds without any hit were thinned out: in the full panel of roughly 83,000, 20% have a hit. Calls of active or inactive are those of the source. The calls were made as follows: active = growth percent below 10; inactive = the rest.

Some molecules with recorded growth:
{"STRUCTURE NOTATION": "CC(=O)O[C@H]1CC[C@]2(C)[C@H]3CC[C@]4(C)[C@@H](OC(C)=O)CC[C@H]4[C@@H]3[C@@H](C)[C@]2(O)C1", "growth": "113% (inactive)"}
{"STRUCTURE NOTATION": "O=NNc1ccccn1", "growth": "90% (inactive)"}

Query molecule follows.
[ask] Please report the recorded growth for C=CC[n+]1ccc(-c2cc[n+](CC=C)cc2)cc1 .
[reply] 109% (inactive)

---

Tested on: U251 CNS
ASSAY NOTES: NCI-60 one-dose screen, 48 h
RUN CONDITIONS: 10 µM unless noted
This is part of a sample that, as a whole, favours compounds with a hit. Of some 83,000 tested, about 20% had one in any assay. The source made the active and inactive calls. The calls were made as follows: active = growth percent below 10; inactive = the rest.
Parameter call: string, one of active, inactive

Use these answered entries as a reference point.
{"STRUCTURE NOTATION": "CCC[CH2][Sn]([CH2]CCC)([CH2]CCC)[O]c1ccc(Cl)cc1Cl", "TARGET OR SYSTEM": "U251 CNS", "CLASS LABEL": "active"}
{"STRUCTURE NOTATION": "COc1cccc2c1c(C(=O)C(=O)Nc1ccn[nH]1)cn2Cc1ccc(F)cc1", "TARGET OR SYSTEM": "U251 CNS", "CLASS LABEL": "inactive"}

Next up:
[ask] Tell me the assay call for N#C[Se]CCN1C(=O)c2ccccc2C1=O please.
[reply] inactive
